# Test target: Cyclin-dependent kinase 7/ cyclin H (Homo sapiens)
# Sequence (P51946 whole entry): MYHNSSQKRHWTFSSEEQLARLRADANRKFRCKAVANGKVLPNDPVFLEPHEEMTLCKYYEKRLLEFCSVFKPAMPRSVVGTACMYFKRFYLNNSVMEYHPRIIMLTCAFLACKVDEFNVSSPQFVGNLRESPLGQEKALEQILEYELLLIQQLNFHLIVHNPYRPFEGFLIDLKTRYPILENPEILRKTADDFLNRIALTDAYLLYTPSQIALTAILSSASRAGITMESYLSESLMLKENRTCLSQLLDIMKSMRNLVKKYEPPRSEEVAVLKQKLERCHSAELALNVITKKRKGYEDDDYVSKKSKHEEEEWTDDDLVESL
# Sequence (P50613 whole entry): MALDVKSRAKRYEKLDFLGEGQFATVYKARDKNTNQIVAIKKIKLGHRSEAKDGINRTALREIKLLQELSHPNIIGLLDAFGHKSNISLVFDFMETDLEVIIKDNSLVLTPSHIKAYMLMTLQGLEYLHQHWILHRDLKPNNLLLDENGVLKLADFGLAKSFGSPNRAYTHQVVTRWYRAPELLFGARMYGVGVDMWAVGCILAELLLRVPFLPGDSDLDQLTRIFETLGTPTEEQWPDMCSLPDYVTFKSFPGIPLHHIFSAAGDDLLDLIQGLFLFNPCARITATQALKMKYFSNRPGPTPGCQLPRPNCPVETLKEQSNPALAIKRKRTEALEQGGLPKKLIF
# Procedure summary: Inhibition of CDK7/cyclin H (unknown origin) using […] incubated for 40 mins in presence of ATP by Kinase-Glo assay
Property measured: pIC50
Recall that pIC50 is obtained by taking minus log10 of the concentration measured in molar.

Query :: Name the reported pIC50 value associated with the molecule "Cc1cnc(Nc2ccc(S(N)(=O)=O)cc2)nc1Nc1nccs1"
Result :: 6.67

* * *

# Test target: Cyclin-dependent kinase 5/CDK5 activator 1 (Homo sapiens, UniProt Q00535)
# Sequence (Q00535 whole entry): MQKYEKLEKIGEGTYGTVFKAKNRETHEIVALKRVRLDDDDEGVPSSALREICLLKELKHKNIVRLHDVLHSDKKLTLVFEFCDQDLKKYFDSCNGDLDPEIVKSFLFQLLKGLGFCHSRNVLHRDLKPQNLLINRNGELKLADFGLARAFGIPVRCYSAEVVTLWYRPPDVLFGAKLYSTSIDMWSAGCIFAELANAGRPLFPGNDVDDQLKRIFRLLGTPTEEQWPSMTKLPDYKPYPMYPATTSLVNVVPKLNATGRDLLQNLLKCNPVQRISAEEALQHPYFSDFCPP
# Sequence (Q15078 whole entry, further chain): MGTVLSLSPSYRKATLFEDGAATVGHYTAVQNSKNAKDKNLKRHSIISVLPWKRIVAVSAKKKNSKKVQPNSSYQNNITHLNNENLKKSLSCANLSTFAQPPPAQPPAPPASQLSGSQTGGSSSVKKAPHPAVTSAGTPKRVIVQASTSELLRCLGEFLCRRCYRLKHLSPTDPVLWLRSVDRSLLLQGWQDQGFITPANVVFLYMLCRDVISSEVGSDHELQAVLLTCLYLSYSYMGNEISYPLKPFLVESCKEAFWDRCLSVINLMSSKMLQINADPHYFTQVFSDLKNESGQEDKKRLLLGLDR
# Procedure summary: Inhibition of CDK5/p35 (unknown origin) using […] incubated for 40 mins in presence of ATP by Kinase-Glo assay
Property measured: pIC50
Recall that pIC50 is obtained by taking minus log10 of the concentration measured in molar.

Query :: Find the recorded pIC50 belonging to "Cc1cnc(Nc2ccc(S(N)(=O)=O)cc2)nc1Nc1nccs1" and report it.
Result :: 6.92
